Biological target: Gal(b1-3)[Neu5Ac(b2-6)]GalNAc
Assay: glycan array binding signal (z-score within array); higher = stronger binding
Settings: glycan notation: IUPAC condensed, linker removed
Many of the other results were omitted from the sample, so the strongest signals are more common in it than they were.
Each record here notes measured glycan array binding signal (z-score).
# print the numeric value only

| Binder | glycan array binding signal (z-score) |
| --- | --- |
| Gal 8 (Homo sapiens) (protein) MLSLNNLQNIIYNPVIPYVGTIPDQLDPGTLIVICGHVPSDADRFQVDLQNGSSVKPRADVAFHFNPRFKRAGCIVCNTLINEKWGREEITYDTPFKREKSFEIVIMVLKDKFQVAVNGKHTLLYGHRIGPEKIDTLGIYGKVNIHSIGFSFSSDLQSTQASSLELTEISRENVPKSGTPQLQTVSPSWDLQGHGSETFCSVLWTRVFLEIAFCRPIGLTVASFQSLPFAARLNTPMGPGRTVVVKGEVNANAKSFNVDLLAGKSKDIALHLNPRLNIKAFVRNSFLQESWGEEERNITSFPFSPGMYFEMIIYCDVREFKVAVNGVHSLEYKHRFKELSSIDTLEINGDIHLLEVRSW | -0.387 |
| DCIR1 (Mus musculus), Q9QZ15 (protein) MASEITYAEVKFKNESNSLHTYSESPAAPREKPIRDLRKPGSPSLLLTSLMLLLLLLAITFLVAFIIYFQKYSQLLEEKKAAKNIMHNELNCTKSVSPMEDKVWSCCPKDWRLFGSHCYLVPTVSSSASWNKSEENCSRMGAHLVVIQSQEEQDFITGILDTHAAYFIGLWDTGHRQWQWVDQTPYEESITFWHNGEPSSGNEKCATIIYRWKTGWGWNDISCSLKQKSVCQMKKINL | -0.696 |

We next turn to a different binder, shown below.
In plain terms, RsaA-N-term (Caulobacter crescentus), P35828 (protein) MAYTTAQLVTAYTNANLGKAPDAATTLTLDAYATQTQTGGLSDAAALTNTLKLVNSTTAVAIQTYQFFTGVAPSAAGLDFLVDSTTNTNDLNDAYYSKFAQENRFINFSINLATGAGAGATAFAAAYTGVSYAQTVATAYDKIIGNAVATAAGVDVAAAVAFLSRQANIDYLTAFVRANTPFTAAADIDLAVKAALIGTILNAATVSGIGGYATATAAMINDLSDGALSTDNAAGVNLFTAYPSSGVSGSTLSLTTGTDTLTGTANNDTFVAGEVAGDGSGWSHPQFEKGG has a documented glycan array binding signal (z-score) of 0.215

Reference source for all entries: the supplement of paper PMC8728848
